# System Name: Recombinant human IL-1β (BioLegend 579404) (human, UniProt P01584 117-269)
# Test Name: cell-based or functional assay
Non-standard residues stand in square brackets, D forms with d. No end group written: not given here. Phe(4-(4-Ac-piperazinyl)) = CC(=O)N1CCN(c2ccc(C[C@H](N)C(=O)O)cc2)CC1; dPro(4R-(4-pyridylmethyl)) = O=C(O)[C@H]1C[C@@H](Cc2ccncc2)CN1; Trp(βS-Me,4-F) = C[C@@H](c1c[nH]c2cccc(F)c12)[C@H](N)C(=O)O; Bip(4'-COOH) = N[C@@H](Cc1ccc(-c2ccc(C(=O)O)cc2)cc1)C(=O)O; Ala(1-bicyclo(1.1.1)pentyl) = N[C@@H](CC12CC(C1)C2)C(=O)O; dPro(4R-Bzl(4-F)) = O=C(O)[C@H]1C[C@@H](Cc2ccc(F)cc2)CN1; Ala(pyrimidin-5-yl) = N[C@@H](Cc1cncnc1)C(=O)O; Phe(4-COOH) = N[C@@H](Cc1ccc(C(=O)O)cc1)C(=O)O; Pro(cis-4-F) = O=C(O)[C@@H]1C[C@H](F)CN1; cisHyp = O=C(O)[C@@H]1C[C@H](O)CN1; d(αMeD) = C[C@@](N)(CC(=O)O)C(=O)O; 4Pal = N[C@@H](Cc1ccncc1)C(=O)O; aThr = C[C@H](O)[C@H](N)C(=O)O; αMeD = C[C@](N)(CC(=O)O)C(=O)O; Dab = NCC[C@H](N)C(=O)O; Aib = CC(C)(N)C(=O)O
Property Measured: MRC5 IC50 (nM)
// note: answer is a bare numeric in nM

Worked examples follow.
{"Binder": "cyclo([Bip(4'-COOH)][4Pal][Phe(4-COOH)]G[Pro(cis-4-F)][Trp(βS-Me,4-F)][Aib]SW[d(αMeD)][Ala(pyrimidin-5-yl)]Q[Dab]G[dPro(4R-Bzl(4-F))]) (ring closure inferred; not fully specified (bridges); printed as Bip4CO2H-4Pal-Phe4COOH-G-Proc4F-SbMeW4F-Aib-S-W-daMeD-PyrimAla-Q-Dab-G-dProc4Bn4F) [SEQ ID NO: 128]", "Uom": "nM", "MRC5 IC50": 0.009}
{"Binder": "cyclo([Bip(4'-COOH)][4Pal][Phe(4-COOH)]G[Pro(cis-4-F)][Trp(βS-Me,4-F)][Aib]SW[d(αMeD)][Ala(pyrimidin-5-yl)]QSG[dPro(4R-(4-pyridylmethyl))]) (ring closure inferred) [SEQ ID NO: 156]", "Uom": "nM", "MRC5 IC50": 0.015}
{"Binder": "cyclo([Bip(4'-COOH)][Ala(1-bicyclo(1.1.1)pentyl)][Phe(4-COOH)]G[Pro(cis-4-F)][Trp(βS-Me,4-F)][Aib]SW[αMeD][aThr]Q[Dab]G[dPro(4R-(4-pyridylmethyl))]) (ring closure inferred; not fully specified (bridges); printed as Bip4CO2H-AlaPent-Phe4COOH-G-Proc4F-SbMeW4F-Aib-S-W-aMeD-alT-Q-Dab-G-dProc4CH24Pal, cyclic (macrolactam)) [SEQ ID NO: 202]", "Uom": "nM", "MRC5 IC50": 0.013}

Next binder, MRC5 IC50 to be filled in.
query: # input binder: [Phe(4-(4-Ac-piperazinyl))][4Pal][Phe(4-COOH)]G[cisHyp][Trp(βS-Me,4-F)][Aib]SW[Aib][Ala(pyrimidin-5-yl)]Q[Dab]G[dPro(4R-Bzl(4-F))] (lactam (positions not given here); also: macrolactam ring, closure sites not given here) [SEQ ID NO: 196] ; wanted: its MRC5 IC50
result: 0.038
